This section presents compounds with their documented Growth Rate values.
Test system: HEK-293T
Assay: Incucyte cell viability with HEK293T; further: unitless GR value; below 1 slowed growth and below 0 cell loss
Assay type: toxicity, cell-based
Conditions: human, 12 h, 10 µM, compound concentration 10 uM, replicate number 2
quantity: Growth Rate

>>> observed("CCn1c(CNC(=O)c2nc(Cl)cnc2N)[n+](CC)c2ccc(C(=O)N(C)CCN(C)C)cc21.[Cl-]")
0.57
>>> observed("CCN(C(=O)c1cc(F)ccc1Oc1cncnc1N1CC2(CCN(C[C@H]3CC[C@H](NS(=O)(=O)CC)CC3)CC2)C1)C(C)C [REVUMENIB]")
0.53
>>> observed("CC(=O)c1c(C)c2cnc(Nc3ccc(N4CCNCC4)cn3)nc2n(C2CCCC2)c1=O [PALBOCICLIB]")
0.81
>>> observed("CSc1ccc(C(=O)/C=C/c2cc(C)c(OC(C)(C)C(=O)O)c(C)c2)cc1 [ELAFIBRANOR]")
0.79
>>> observed("N[C@@H]1CCCC[C@H]1Oc1ccc2ncc(-c3cc4ccccc4o3)n2n1")
-0.77
>>> observed("COc1cc(N2CCC(N3CCN(C)CC3)CC2)ccc1Nc1ncc(Cl)c(Nc2ccccc2S(=O)(=O)C(C)C)n1 [TAE-684]")
-0.16
>>> observed("COc1ccc(COc2ccc(Cc3cnc(N)nc3N)cc2OC)cc1 [GW632580X]")
0.92
>>> observed("Cc1nc2ccc(Oc3ccc(F)cc3)cc2c(=O)n1C[C@H]1CCCN(C(C)C)C1.Cl")
0.35

###

System: Fibroblast
Experiment: Incucyte cell viability with human fibroblast; further: unitless GR value; below 1 slowed growth and below 0 cell loss
Type: toxicity, cell-based
Settings: 12 h, 10 µM, compound concentration 10 uM, replicate number 2
Each entry below carries its reported Growth Rate.
quantity: Growth Rate

>>> observed("CCOC(=O)C1=C[C@]2(CC)CCCN3CCc4c(n1c1ccccc41)[C@@H]32")
0.32
>>> observed("Cc1nnc2n1-c1sc3c(c1C(c1ccccc1Cl)=NC2)C[C@H](C(=O)N1CCOCC1)C3")
0.19
>>> observed("Cc1nnc2ccc(-c3cccc(C(F)(F)F)c3)nn12")
0.98
>>> observed("COc1cnccc1Nc1nc(-c2nn(Cc3c(F)cc(OCCO)cc3F)c3ccccc23)ncc1OC")
0.04
>>> observed("Cl.O=C(O)CCCN1CCC[C@H]1COc1ccc(Oc2ccc(Cl)cc2)cc1")
0.93
>>> observed("Oc1cccc(Nc2ccnc3[nH]c4ccccc4c23)c1")
-0.25
>>> observed("Cc1cc(-c2cnc(N)c3c(-c4ccc5scnc5c4)csc23)n(C)n1")
0.67
>>> observed("O=C(Cc1ccccc1[N+](=O)[O-])Nc1ccc(-c2ccc(C(O)(C(F)(F)F)C(F)(F)F)cc2F)cc1")
0.28
>>> observed("CC(C)N1CCN(Cc2cnc(-c3cc(-c4cccc5[nH]ccc45)cc4[nH]ncc34)o2)CC1")
0.83
>>> observed("Cc1ccc(-n2nc(C(C)(C)C)cc2NC(=O)Nc2ccccc2F)cc1")
0.82
>>> observed("CCOC(=O)c1cnn(-c2ccc(NC(=O)C(Cl)=C(Cl)Cl)cc2)c1C(F)(F)F")
-0.86
>>> observed("CC(C)(C[C@H]1CN(S(=O)(=O)c2cccc(C(F)(F)F)c2)c2cc(-c3cc(F)cc(OC(F)F)c3)ccc2O1)C(=O)O")
0.54
>>> observed("CN[C@@H]1CC[C@@H](c2ccc(Cl)c(Cl)c2)c2ccccc21.Cl")
-0.45
>>> observed("C/C(=C\\C(=O)Nc1ccccc1C(=O)[O-])c1ccc2ccccc2c1.[Na+]")
0.94
>>> observed("CC(C)(C)C(=O)NCc1ccc(Cl)c(C(=O)Nc2ncc[nH]2)c1")
0.86
>>> observed("CC(C)(C)c1cnc(CSc2cnc(NC(=O)C3CCNCC3)s2)o1")
-0.28
>>> observed("CCO[C@@H](Cc1ccc(OCCc2ccc(OS(C)(=O)=O)cc2)cc1)C(=O)O")
0.56
>>> observed("O=C(CNCc1cc2ccccc2[nH]1)N[C@H]1CC[C@@H](c2nc3ccccc3[nH]2)CC1")
0.69
>>> observed("CC1CCN(c2ccnc(NCc3cn(C)cn3)n2)CC1")
0.76
